System: SW480
TEST SUMMARY: cell viability (CellTiter-Glo) relative to plate median (fraction of plate median); higher = more viable cells
MEASUREMENT PARAMETERS: 5 µM; treatment time 24 h; reporter: 7TFP
ENDPOINT: cell viability
Simply state the number, no unit and no words.

Please review the following examples before continuing.
O=C1C[C@@H]2OCC=C3CN4CC[C@]56c7ccccc7N1[C@H]5[C@H]2[C@H]3C[C@H]46 | 1.05
CC1=C2C(=CO[C@H](C)[C@H]2C)C(O)=C(C(=O)O)C1=O | 0.923
C[C@H]1C(=O)O[C@@H]2CCN3CC=C(COC(=O)[C@](C)(O)[C@]1(C)O)[C@H]23 | 1.01
CNC(=O)Oc1ccccc1OC(C)C | 0.986
CCCC(C)C1(CC)C(=O)NC(=O)NC1=O (stereo unspecified) | 0.978
C/C=C(/C)C(=O)O[C@H]1CC[C@@]2(C)[C@@H]3CC[C@H]4[C@]5(O)C[C@H](O)[C@@]6(O)[C@@H](CN7C[C@@H](C)CC[C@H]7[C@@]6(C)O)[C@]5(O)C[C@]42O[C@]13O | 1.04
CC(C)(C)NCC(O)c1cc(Cl)c(N)c(Cl)c1 (stereo unspecified) | 0.922
COc1ccc([C@H]2Oc3c(I)c(OC)cc(OC)c3C[C@@H]2O)cc1OC | 1
CC(C)(C)[C@]1(O)C[C@@H]2OC(=O)C[C@@]23C(=O)O[C@@H]2OC(=O)[C@H](O)[C@]213 | 1.01
c1ccc2nc(N3CCNCC3)ccc2c1 | 0.974

Problem: Which cell viability is listed for CCCCCCCCCc1ccc(O)cc1 ?
Solution: 0.946
